# CONDITION NOTES: in isopropanol, 293.35 K
ASSAY METRIC: solubility (mole fraction)
When you answer, write just the number.

Quick one: give measured solubility (mole fraction) for "C=CC(=O)NC(C)(C)CC(C)=O" 0.343

* * *

# CONDITION NOTES: in isobutanol, 283.25 K
ASSAY METRIC: solubility (mole fraction)
When you answer, write just the number.

Quick one: give measured solubility (mole fraction) for "C=CC(=O)NC(C)(C)CC(C)=O" 0.301

* * *

# CONDITION NOTES: in n-hexanol, 272.15 K
ASSAY METRIC: solubility (mole fraction)
When you answer, write just the number.

Quick one: give measured solubility (mole fraction) for "C=CC(=O)NC(C)(C)CC(C)=O" 0.151
